B1: SPDEF (parent)
chain: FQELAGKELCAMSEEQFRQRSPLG

Variants of: B1
assay.text: protein stability index of a GFP-peptide fusion (GPS, HEK-293T) (PSI 1-6); higher = more stable;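 also: lentivirally expressed fusions sorted by FACS into six bins by GFP to DsRed ratio, PSI derived from sequencing read proportions per bin multiplied by bin number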
condition.parameters: c terminus: a fixed tail appended
readout.kind: protein stability index
Please give the numeric answer without any surrounding text.

[
  {
    "variant.string": "E15F",
    "protein stability index": 1.98
  },
  {
    "variant.string": "E15L",
    "protein stability index": 2.32
  },
  {
    "variant.string": "S21H",
    "protein stability index": 2.82
  },
  {
    "variant.string": "A11L",
    "protein stability index": 2.23
  },
  {
    "variant.string": "L9F",
    "protein stability index": 2.56
  }
]

Please turn your attention to the following entry.
Exam item: Requested read-out: protein stability index. Entry: "Q19L"
Marked response: 2.24
